Tested on: MOLT-4 leukemia
Assay: NCI tumour cell line growth inhibition, 48 h
Measured log10(TGI) accompanies every entry in the list below.
Please interpret these as log10 of TGI where TGI is in µM.

Study these solved cases before continuing.
| compound | log10(TGI) |
| --- | --- |
| N#CCCN1C/C(=C/c2ccccc2)C(=O)/C(=C/c2ccccc2)C1 | 1.25 |
| CN1CCN(Cn2nc(COc3ccc(Cl)cc3)n(/N=C/c3ccc(-c4ccc(Cl)cc4Cl)o3)c2=S)CC1 | 1.61 |
| COc1ccc2c(c1)-c1c(c3cc(OC)ccc3n1CCN1CCOCC1)CC2 | 1.53 |
| Cc1cc(C)n(-c2nc3ccccc3c(=O)[nH]2)n1 | 1.70 |
| NCCOc1ncccc1/C=C1\C2C=CC=CC2C2C=CC(F)=CC12 (stereo not drawn) | 0.04 |
| COc1ccc2[nH]c(C(=O)N3CCN(C(=O)OCc4ccc5c(Br)cc(Br)c(O)c5n4)CC3)cc2c1 | -0.02 |
| OC(c1ccc(F)cc1)(c1ccc(F)cc1)C1CC1 | 1.69 |
| CN(C)c1ccc(Cc2cc(C(C)(C)C)cc(C(C)(C)C)c2O)cc1 | 1.50 |

Any idea what log10(TGI) was measured for N#Cc1c(-c2ccc(Cl)cc2)cc(-c2cc(O)ccc2O)nc1N ?
0.70

Any idea what log10(TGI) was measured for Cc1noc(NS(=O)(=O)c2ccc(NC(=O)c3ccc4[nH]c5ccccc5c(=O)c4c3)cc2)c1C ?
1.83

====

System: SF-539 CNS
Test: NCI tumour cell line growth inhibition, 48 h; in the data active = GI50 below about 0.43 µM; inactive = the rest
Give your call using only these classes: YES for active, NO for inactive

Look over these answered cases.
| compound | label |
| --- | --- |
| O=c1cc(N2CCOCC2)oc2c(-c3ccc4c(c3)OCCO4)csc12 | YES |
| COc1ccc(C(=O)/C=C/c2ccc(OCc3ccc(Cl)cc3)cc2)cc1OC | NO |
| COC(=O)c1ccc([C@H]2c3[nH]c4ccccc4c3C[C@H](C(=O)OC)N2C(=O)CCl)cc1 | YES |
| NCCOc1ncccc1/C=C1\C2C=CC=CC2C2C=CC(F)=CC12 (stereo unspecified) | NO |
| O=C(O)[C@@H]1CCCN1Cc1cc2cc3c(cc2c2cc(OCc4ccccc4)ccc12)OCO3 | NO |

GET /call?item= COc1cc(C2c3cc4c(cc3[C@@H](NCCCN3CCCC3=O)C3COC(=O)[C@H]23)OCO4)cc(OC)c1O (stereo partly specified) returns the recorded outcome of this test.
NO

====

Measured TGI accompanies every entry in the list below.
System: SF-295 CNS
Experiment: NCI tumour cell line growth inhibition, 48 h

| compound | TGI |
| --- | --- |
| CN(C)CCCNC(=S)S | > 100 µM |
| COc1ccc(Nc2nc(C#N)c(N)s2)cc1 | 91.3 µM |
| Cc1ccc(NC(=O)CSc2nnc(Cc3ccccc3)o2)c(C)c1 | > 100 µM |
| O=[N+]([O-])[O][Sn]([O][Sn]([O][N+](=O)[O-])([c]1ccccc1)[c]1ccccc1)([c]1ccccc1)[c]1ccccc1 | > 100 µM |
| CC(=O)CC1(O)C(=O)c2c(Br)sc(Br)c2C1=O | > 100 µM |
| C=C(CC[C@@H](C)[C@H]1CC[C@H]2[C@@H]3C[C@@H](O)[C@H]4C[C@@H](O)CC[C@]4(CO)[C@H]3CC[C@]12C)C(C)C | 17.1 µM |

Field: TGI (SF-295 CNS). Entry: CC1(C)C(O)OC(O)C1(C)C (stereo not given)
> 100 µM

Field: TGI (SF-295 CNS). Entry: O=S(=O)(Cc1nc2ccccc2s1)c1nc2ccccc2s1
64.2 µM

Field: TGI (SF-295 CNS). Entry: CC1=Nn2c(nnc2-c2ccccc2Cl)NC(C)(C)C1
> 100 µM

Field: TGI (SF-295 CNS). Entry: C[n+]1cn(-c2ccc([N+](=O)[O-])cn2)c2ccccc21
> 100 µM

Field: TGI (SF-295 CNS). Entry: CCN1CC2(COC)C(O)CC(OC)C34C5CC6(O)C(OC)C=C(C5C6OC(=O)c5ccc(OC)c(OC)c5)C(C(OC)C23)C14 (stereo not given)
> 7.5 µM

Field: TGI (SF-295 CNS). Entry: C[C@]12CC[C@H](O)C[C@@H]1CC[C@@H]1[C@@H]2CC[C@]2(C)[C@@H](c3cc(C(F)(F)F)n[nH]3)CC[C@@H]12
16.9 µM

Field: TGI (SF-295 CNS). Entry: COC(=O)N1c2ccc3c(nc(Cc4ccccc4)n3[C@H]3CCC[C@H](C(=O)O)C3)c2CC[C@@H]1C
> 100 µM
